Test: Pharmacokinetics after intra-duodenal injection (ID) in anesthetized rats, model mimicking enteric-coated oral dosage form, plasma LC-MS
Type: in vivo, rat
Conditions: rat, plasma, other: intra-duodenal injection (ID), 3 mg, pH 3.5, ID 0.3 ml C [10 mg/ml, Captopril 5 mg/ml, 10 mg/ml LLC, 400 mM Citrate pH 3.5, 150 mM NaCl]; Mean PK Value (average of individual PK parameters); read-out: Half-Life
OBSERVED_PROPERTY: Half-Life (min)
Answers are plain numbers, in min.

// query GET /values?readout=Half-Life&item= CC[C@H](C)[C@H](NC(=O)[C@H](Cc1ccc(O)cc1)NC(=O)[C@@H](NC(=O)[C@H](CCCNC(=N)N)NC(=O)[C@@H](N)CC(=O)O)C(C)C)C(=O)N[C@@H](Cc1c[nH]cn1)C(=O)N1CCC[C@H]1C(=O)O [Angiotensin (1-7)]
// result 14.1

* * *

Experiment: Pharmacokinetics after intra-duodenal injection (ID) in anesthetized rats, model mimicking enteric-coated oral dosage form, plasma LC-MS
Type: in vivo, rat
Details: rat, plasma, pH 3.5, ID 0.3 ml C [10 mg/ml, Captopril 5 mg/ml, 10 mg/ml LLC, 400 mM Citrate pH 3.5, 150 mM NaCl]; time point 60 min; Average; read-out: Angiotensin (1-7) concentration
OBSERVED_PROPERTY: level at 1 h (ng/mL)
One number for each entry, in ng/mL.

// query # get_value(readout='level at 1 h', item= CC[C@H](C)[C@H](NC(=O)[C@H](Cc1ccc(O)cc1)NC(=O)[C@@H](NC(=O)[C@H](CCCNC(=N)N)NC(=O)[C@@H](N)CC(=O)O)C(C)C)C(=O)N[C@@H](Cc1c[nH]cn1)C(=O)N1CCC[C@H]1C(=O)O [Angiotensin (1-7)] )
// result 19.2

* * *

Experiment: Pharmacokinetics after intra-duodenal injection (ID) in anesthetized rats, model mimicking enteric-coated oral dosage form, plasma LC-MS
Format: in vivo, rat
Settings: rat, plasma, other: intra-duodenal injection (ID), 3 mg, pH 3.5, ID 0.3 ml B [10 mg/ml, 10 mg/ml LLC, 400 mM Citrate pH 3.5, 150 mM NaCl]; Average (PK value of the mean concentrations); read-out: Tmax (converted)
OBSERVED_PROPERTY: Tmax (min)
Give bare numbers, in min.

// query Consider the molecule CC[C@H](C)[C@H](NC(=O)[C@H](Cc1ccc(O)cc1)NC(=O)[C@@H](NC(=O)[C@H](CCCNC(=N)N)NC(=O)[C@@H](N)CC(=O)O)C(C)C)C(=O)N[C@@H](Cc1c[nH]cn1)C(=O)N1CCC[C@H]1C(=O)O [Angiotensin (1-7)] and give its measured Tmax.
// result 5

* * *

Experiment: Pharmacokinetics after intra-duodenal injection (ID) in anesthetized rats, model mimicking enteric-coated oral dosage form, plasma LC-MS
Format: in vivo, rat
Conditions: rat, plasma, other: intra-duodenal injection (ID), 3 mg, ID 0.3 ml A [10 mg/ml in PBS]; Mean PK Values (average of individual PK parameters); read-out: Tmax (converted)
Protocol: This model mimics the release and absorption expected from an orally delivered enteric coated solid dosage form such as capsule or tablet. After extraction, the samples were then transferred to ice-cold tubes containing a protease inhibitor cocktail. […] The oral delivery of an angiotensin (1-7) peptide (e.g., TXA127) was then evaluated in a rat model that mimics the release of the peptide into the intestine by enteric-coated capsule. […]
OBSERVED_PROPERTY: Tmax (min)
Give bare numbers, in min.

// query Would you mind telling me what Tmax value was observed for `CC[C@H](C)[C@H](NC(=O)[C@H](Cc1ccc(O)cc1)NC(=O)[C@@H](NC(=O)[C@H](CCCNC(=N)N)NC(=O)[C@@H](N)CC(=O)O)C(C)C)C(=O)N[C@@H](Cc1c[nH]cn1)C(=O)N1CCC[C@H]1C(=O)O` ?
// result 46

Reference for the values: patent US20150246093A1
